Biological target: T1, human angiotensin 2 type 1 receptor (human, UniProt P30556 1-359)
T1 sequence (looked up): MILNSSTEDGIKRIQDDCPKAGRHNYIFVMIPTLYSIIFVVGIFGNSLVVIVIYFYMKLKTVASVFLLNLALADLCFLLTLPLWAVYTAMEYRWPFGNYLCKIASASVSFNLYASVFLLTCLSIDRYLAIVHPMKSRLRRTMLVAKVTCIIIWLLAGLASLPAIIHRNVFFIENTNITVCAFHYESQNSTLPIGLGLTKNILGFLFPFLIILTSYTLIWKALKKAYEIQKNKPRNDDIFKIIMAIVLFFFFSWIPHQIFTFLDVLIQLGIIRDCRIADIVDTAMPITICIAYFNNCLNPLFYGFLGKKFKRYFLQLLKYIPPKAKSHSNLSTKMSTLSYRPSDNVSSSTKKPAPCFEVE
Experiment: cell-based or functional assay
Non-standard residues stand in square brackets, D forms with d. No end group written: not given here. Sar = CNCC(=O)O
Please provide measured b-arrestin2 Max (%) for the entries that follow.
Numbers only, in %.

Some solved entries appear below for comparison.
1) RVYIHPRVYIHPRVYIHP (cyclic, as printed: Cyclo(...)) [SEQ ID NO: 36]	39.5
2) FVYIHPFVYIHPFVYIHP (cyclic, as printed: Cyclo(...)) [SEQ ID NO: 37]	62.3
3) [Sar]RVYFHP-NH2 (N-terminus assumed; SMILES CNCC(=O)N[C@@H](CCCNC(=N)N)C(=O)N[C@H](C(=O)N[C@@H](Cc1ccc(O)cc1)C(=O)N[C@@H](Cc1ccccc1)C(=O)N[C@@H](Cc1c[nH]cn1)C(=O)N1CCC[C@H]1C(N)=O)C(C)C) [SEQ ID NO: 41]	30.1
4) ERVYYHP (N-Me-Glu (N-methyl-L-glutamic acid) at 1; C-terminal amide (NH2)) [SEQ ID NO: 62]	24.7
5) ERVYYHP (C-terminal amide (NH2)) [SEQ ID NO: 59]	19.5
6) [Sar]RVYHHP-NH2 (N-terminus assumed; SMILES CNCC(=O)N[C@@H](CCCNC(=N)N)C(=O)N[C@H](C(=O)N[C@@H](Cc1ccc(O)cc1)C(=O)N[C@@H](Cc1c[nH]cn1)C(=O)N[C@@H](Cc1c[nH]cn1)C(=O)N1CCC[C@H]1C(N)=O)C(C)C) [SEQ ID NO: 42]	46.4

Could you report b-arrestin2 Max (%) for every entry in the following list?
1. DRVYIHPG-OH [SEQ ID NO: 56]
2. GRVYIHPA (Me2G (N,N-dimethylglycine) at 1) [SEQ ID NO: 32]
3. [Sar]RVYIKP[dA]-OH (N-terminus assumed; SMILES CC[C@H](C)[C@H](NC(=O)[C@H](Cc1ccc(O)cc1)NC(=O)[C@@H](NC(=O)[C@H](CCCNC(=N)N)NC(=O)CNC)C(C)C)C(=O)N[C@@H](CCCCN)C(=O)N1CCC[C@H]1C(=O)N[C@H](C)C(=O)O) [SEQ ID NO: 50]

// result
1. 104
2. 55.6
3. 56.8

Could you report b-arrestin2 Max (%) for every entry in the following list?
1. DRVYYHP (D-Asp at 1; C-terminal amide (NH2)) [SEQ ID NO: 58]
2. ARVYVHPA (NMAla (N-methyl-L-alanine) at 1) [SEQ ID NO: 33]
3. ARVYIHPA (NM-D-Ala (N-methyl-D-alanine) at 1) [SEQ ID NO: 47]

// result
[48.7, 54.9, 80.5]

Could you report b-arrestin2 Max (%) for every entry in the following list?
1. [Sar]RVYKHP-NH2 (N-terminus assumed; SMILES CNCC(=O)N[C@@H](CCCNC(=N)N)C(=O)N[C@H](C(=O)N[C@@H](Cc1ccc(O)cc1)C(=O)N[C@@H](CCCCN)C(=O)N[C@@H](Cc1c[nH]cn1)C(=O)N1CCC[C@H]1C(N)=O)C(C)C) [SEQ ID NO: 43]
2. ARVYIHPA (NMAla (N-methyl-L-alanine) at 1) [SEQ ID NO: 34]
3. ERVYFHP (C-terminal amide (NH2)) [SEQ ID NO: 64]
4. DRVYFHP (N-Me-Asp (N-methyl-L-aspartic acid) at 1; C-terminal amide (NH2)) [SEQ ID NO: 65]
5. [Sar]RVYRHP-NH2 (N-terminus assumed; SMILES CNCC(=O)N[C@@H](CCCNC(=N)N)C(=O)N[C@H](C(=O)N[C@@H](Cc1ccc(O)cc1)C(=O)N[C@@H](CCCNC(=N)N)C(=O)N[C@@H](Cc1c[nH]cn1)C(=O)N1CCC[C@H]1C(N)=O)C(C)C) [SEQ ID NO: 45]
6. [Sar]RVYEHP-NH2 (N-terminus assumed; SMILES CNCC(=O)N[C@@H](CCCNC(=N)N)C(=O)N[C@H](C(=O)N[C@@H](Cc1ccc(O)cc1)C(=O)N[C@@H](CCC(=O)O)C(=O)N[C@@H](Cc1c[nH]cn1)C(=O)N1CCC[C@H]1C(N)=O)C(C)C) [SEQ ID NO: 40]
7. RVYIHP (C-terminal amide (NH2)) [SEQ ID NO: 13]
8. XRVYVHP (Sar (sarcosine) at 1) [SEQ ID NO: 54]

// result
42.7
53
20.4
37.8
53.3
53.2
43.4
58.6

Could you report b-arrestin2 Max (%) for every entry in the following list?
1. ERVYYHP (D-Glu at 1; C-terminal amide (NH2)) [SEQ ID NO: 60]
2. VYIHPF (cyclic, as printed: Cyclo(...)) [SEQ ID NO: 38]
3. ARVYIHPA (NM-D-Ala (N-methyl-D-alanine) at 1; D-Ala at 8) [SEQ ID NO: 82]
4. DRVYFHP (C-terminal amide (NH2)) [SEQ ID NO: 63]

// result
44
43.1
38.3
35.9
